These entries and their values trace back to patent US8569327B2.

- Tested on: NFκB
- assayText: Inhibitory action on the NFκB activity, luciferase assay in SW480/NRE-Luc cells
- Format: cell-based, human
- reportedConditions: Homo sapiens, SW480, read-out: NFκB inhibitory activity IC50
- Experimental: The action of the phenanthroindolizidine alkaloid compound of the present invention on the NFκB activity was studied using a luciferase assay. […] Subsequently, a Steady-Glo Luciferase Assay reagent (Promega Corporation) was added, and the luminescent intensity was detected by SpectraMax M5e (Molecular Devices, Inc.) to measure the intracellular luciferase activity. […]
measuredProperty: IC50 (ng/mL)
Numbers only, in ng/mL.

Example compounds with recorded IC50:
Form: compound = COc1cc2c3c(c4cccc(O)c4c2cc1OC)C[C@@H]1CCCN1C3.Cl [Compound 40] ; IC50 = 2.4

Quick note, IC50 for COc1cc2c3c(c4ccc(NC(C)=O)cc4c2cc1OC)C[C@@H]1CCCN1C3.CS(=O)(=O)O [Compound 56] landed at 2.9

// field: IC50; key: COc1cc2c3c(c4ccccc4c2cc1OC)[C@H](O)[C@@H]1CCCN1C3.Cl [Compound 1] ; value = 2.7

IC50 recorded for this compound, COc1cc2c3c(c4ccc(N)cc4c2cc1OC)C[C@@H]1CCCN1C3.CS(=O)(=O)O [Compound 54] , is 2

response.value for COc1cc2c3c(c4ccccc4c2cc1OC)[C@@H](O)[C@H]1CCCN1C3.Cl [Compound 2] (field: IC50) = 387

Memo: COc1cc2c3c(c4ccc(NC(=O)OCC(C)C)cc4c2cc1OC)[C@H](O)[C@@H]1CCCN1C3.Cl [Compound 18] , reported IC50: 15.5

Provide IC50 for all items below, preserving their order.
1. COc1cc2c3c(c4ccc(NC(=O)OCC(C)C)cc4c2cc1OC)C[C@@H]1CCCN1C3.Cl [Compound 42]
2. CCc1ccc2c3c(c4cc(OC)c(OC)cc4c2c1)CN1CCC[C@@H]1[C@@H]3O.Cl [Compound 4]

Reply:
117
201

----------
- System: human colon cancer SW480 cells
- assayText: Inhibitory action on the proliferation of SW480 cells
- Type: cell-based
- reportedConditions: 48 hours, TetraColor ONE
Where SW480 proliferation inhibitory action IC50 equals or exceeds 1 ng/mL, the correct label is t; where it does not, the label is f.

These recorded examples may help you get a feel for the data.
Ask: Hello, I need to know if COc1cc2c3c(c4ccc(OC(=O)c5cccnc5)cc4c2cc1OC)C[C@@H]1CCCN1C3.CS(=O)(=O)O has measured SW480 proliferation inhibitory action IC50 not below 1 ng/mL. Thanks!
Reply: f

Ask: Textbook exercise: given the entry COc1cc2c3c(c4ccc(OC(C)=O)cc4c2cc1OC)C(F)[C@@H]1CCCN1C3.Cl (some centres unmarked) , state whether its SW480 proliferation inhibitory action IC50 is greater than or equal to 1 ng/mL.
Reply: t

Ask: Hello, I need to know if COc1cc2c3c(c4ccc(OC(=O)c5ccoc5)cc4c2cc1OC)[C@H](O)[C@@H]1CCCN1C3.Cl has measured SW480 proliferation inhibitory action IC50 not below 1 ng/mL. Thanks!
Reply: t

Others:
Ask: Reported SW480 proliferation inhibitory action IC50 reaches at least 1 ng/mL for COc1cc2c3c(c4ccc(OC(=O)N5CCC(N6CCCCC6)CC5)cc4c2cc1OC)[C@H](O)[C@@H]1CCCN1C3 ?
Reply: t

Ask: Reported SW480 proliferation inhibitory action IC50 at or above 1 ng/mL? COc1cc2c3c(c4ccc(OC(=O)C(C)C)cc4c2cc1OC)[C@H](O)[C@@H]1CCCN1C3.Cl
Reply: f

Ask: Form field: SW480 proliferation inhibitory action IC50 at least 1 ng/mL? Entry: COC(=O)CCC(=O)Oc1ccc2c3c(c4cc(OC)c(OC)cc4c2c1)CN1CCC[C@H]1C3.Cl
Reply: f

Ask: Answer whether SW480 proliferation inhibitory action IC50 of COc1cc2c3c(c4ccc(OC(=O)C(C)(C)C)cc4c2cc1OC)C[C@@H]1CCCN1C3.Cl is greater than or equal to 1 ng/mL.
Reply: t

Ask: Hi team, for CCC(=O)Oc1ccc2c3c(c4cc(OC)c(OC)cc4c2c1)CN1CCC[C@H]1C3.CS(=O)(=O)O , is the recorded SW480 proliferation inhibitory action IC50 at or above 1 ng/mL?
Reply: t

Ask: Decide: is the reported value of SW480 proliferation inhibitory action IC50 for COc1cc2c3c(c4ccc(OC(C)=O)cc4c2cc1OC)C[C@@H]1CCCN1C3.CS(=O)(=O)O equal to or greater than 1 ng/mL?
Reply: f

Ask: Hi team, for COc1cc2c3c(c4ccc(OC(=O)c5cccnc5)cc4c2cc1OC)C[C@@H]1CCCN1C3.Cl , is the recorded SW480 proliferation inhibitory action IC50 at or above 1 ng/mL?
Reply: t
